B1: HDV Ribozyme (parent)
chain: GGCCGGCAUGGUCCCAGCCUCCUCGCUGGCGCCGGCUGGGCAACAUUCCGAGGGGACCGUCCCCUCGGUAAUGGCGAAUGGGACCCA

- Variants of: B1
- Assay procedure: self-cleavage, relative activity (ratio to wild type); higher = more cleavage; co-transcriptional
Property: self-cleavage
Answer with a number only.

Solved cases (5 shown):
Alteration: U47G G68C
Reported value: 0.499
//
Alteration: C66U A83U
Reported value: 0.43
//
Alteration: C49G C66A
Reported value: 0.773
//
Alteration: A43G C63U
Reported value: 0.615
//
Alteration: A42C A43C
Reported value: 0

C48A A70G yielded self-cleavage of 1.11

Record C3G G68A , field self-cleavage: 0.51

Entry under test: C24A A45U . Its self-cleavage was 0.541

Documented self-cleavage of C3U G29U : 0.0723

For C7G G50A the variant record lists self-cleavage as 0.612

For C48A C62G the variant record lists self-cleavage as 0.359
